- TEST NAME: Timed organ biodistribution of [^64Cu]Cu-DOTATATE by ex vivo gamma counting
- Assay type: in vivo, mice
- ASSAY CONTEXT: mouse, liver, intravenous, 1.85 MBq, total radioactivity; female Apoe^-/- mice 12 weeks on Western Diet, 15 min after injection, median (IQR), N=3-8; read-out: Tissue radioactivity, liver
PROPERTY: tissue uptake at 0.25 h (%ID/g)
Report the value in %ID/g with no unit label.

# tissue uptake at 0.25 h (compound: C[C@@H](O)[C@H](NC(=O)[C@@H]1CSSC[C@H](NC(=O)[C@@H](Cc2ccccc2)NC(=O)CN2CCN(CC(=O)O)CCN(CC(=O)O)CCN(CC(=O)O)CC2)C(=O)N[C@@H](Cc2ccc(O)cc2)C(=O)N[C@H](Cc2c[nH]c3ccccc23)C(=O)N[C@@H](CCCCN)C(=O)N[C@@H]([C@@H](C)O)C(=O)N1)C(=O)O [[^64Cu]Cu-DOTATATE, metal not drawn] ) is 8.6
